TGI: recorded values
Test system: MDA-MB-231 breast
testName: NCI tumour cell line growth inhibition, 48 h
Where a SMILES comes first, the peptide text is derived from it. [ ]: non-standard residue; d: D form. Phe(F5) = N[CH](Cc1c(F)c(F)c(F)c(F)c1F)C(=O)O
measurementKind: TGI (µM)

INSERT INTO measurements (compound, readingqualifier, endpointresult) VALUES
  ('CCn1c(-c2nonc2N)nc2cncc(C(=O)N3CCNCC3)c21', '>', 25),
  ('COc1cccc(C2=C(c3cn(C)c4ccccc34)C(=O)NC2=O)c1', '>', 25),
  ('O=c1n(/N=C/c2ccccc2)c(=O)n2n1C1C=CC2CC1', '>', 100),
  ('Clc1cccc(Cl)c1C=NC12CC3CC(CC(C3)C1)C2', '>', 10),
  ('CCc1c(C)[nH]c(/C=C2\N=C(c3ccc[nH]3)C=C2OC)c1C', '=', 3.16),
  ('COc1cc(Cn2cc3c(c2)-c2oncc2CC3)cc(OC)c1OC', '>', 100),
  ('Cc1c2ccncc2cc2c1sc1ccncc12', '=', 21.9),
  ('Cn1c(=O)c2[nH]c(/N=N/N3CCN(CCO)CC3)nc2n(C)c1=O', '>', 100),
  ('CC(C)c1ccccc1SC1CC(=O)CC(Sc2ccccc2C(C)C)C12O[C@H](c1ccccc1)[C@@H](c1ccccc1)O2 (stereo not given in full)', '=', 71.8),
  ('COC(=O)C(CC(C)C)NC(=O)C(Cc1cnc[nH]1)NC(=O)CNC(=O)C(NC(=O)C(C)NC(=O)C(Cc1c[nH]c2ccccc12)NC(=O)C(CCC(=O)O)NC(=O)C(N)Cc1c(F)c(F)c(F)c(F)c1F)C(C)C (stereo not given) (H-[Phe(F5)]EWAVGHL-OMe; configuration not given here)', '>', 12.5),
  ('C[C@]12CC[C@H]3[C@@H](CCC4=CC(=O)CC[C@@H]43)[C@@H]1CC[C@@H]2OC(=O)N(CCCl)N=O', '=', 37.9),
  ('CN(C)c1ccc(-c2c(C#N)c(N)[nH]c(=S)c2C#N)cc1', '>', 100),
  ('COc1cc2nc(Cl)nc(Nc3cccc(C(=O)/C=C/c4ccccc4)c3)c2cc1OC', '>', 92.4),
  ('O=C(CCl)c1ccc([N+](=O)[O-])o1', '=', 13.7),
  ('O=C1CC(=O)NC(=NN2C(=O)CSC2c2ccc(Cl)c(Cl)c2)N1 (stereo not given)', '>', 100),
  ('COc1ccc2c(c1)CC[C@@H]1[C@@H]2CC[C@]2(C)C(=O)C3(CCCCC3)C[C@@H]12', '>', 100),
  ('O=C1C(Cl)=C(N/N=c2/[nH][nH]/c(=N/NC3=C(Cl)C(=O)c4ccccc4C3=O)c3ccccc23)C(=O)c2ccccc21', '=', 28.2),
  ('COc1cc(Br)c(OC)c2c(OC)cc(C)cc12', '>', 100),
  ('CCOC(=O)c1nc2ccc(C(F)(F)F)cc2nc1NCc1ccc(Cl)c(Cl)c1', '>', 100),
  ('COc1cccc(OC(=O)c2ccccc2Nc2ccnc(C(F)(F)F)c2)c1', '=', 16.9),
  ('O=C(CCN1CCCC1)Nc1ccc2c(NCc3ccc(F)cc3)c3ccccc3nc2c1', '=', 1.91),
  ('Nc1ncnc2sc(=S)c3c(c12)CCC3', '>', 100),
  ('COc1ccc(C(=O)/C=C/c2ccc(Cl)cc2)cc1S(=O)(=O)Nc1c(N)nc(SC)[nH]c1=O', '=', 10.5),
  ('CCc1ccc(NCc2cc(OC)c(OC)c(OC)c2)cc1', '>', 100),
  ('C=C1C(=O)O[C@@H]2C1CC(=O)C(C)CC/C=C(\C)CCC[C@H](C)[C@H]2OC(C)=O (stereo not given in full)', '=', 33.5),
  ('COc1ccc(C(=O)/C=C/c2ccc(OCC(=N)N)cc2)cc1OC', '>', 10),
  ('NC1CC(=O)c2cc(Cl)sc21 (stereo not given)', '>', 100),
  ('Oc1ccccc1/C=N/Nc1nnc2c3ccccc3c3ccccc3c2n1', '>', 100),
  ('CCN=C1C=CC(=C(c2ccc(N(C)C)cc2)c2ccc(N(C)C)cc2)c2ccccc21', '=', 1.3),
  ('Nc1nc(/C=C\c2ccc([N+](=O)[O-])o2)nc(N2CCN(c3ccccc3)CC2)n1', '=', 13.3);
